Reference for the values: paper PMC12000319

In this section we review reported isotherm data point (enthalpy change per injection) values for a set of molecules.
# ASSAYED_SYSTEM: UCP1 (Homo sapiens)
# Construct: His8 (N, cleaved yes); Factor Xa protease cleavage site (N, cleaved yes); made in house; host or cells: Saccharomyces cerevisiae strain W303.1B
# PROCEDURE_SUMMARY: Isothermal titration calorimetry of nucleotide binding
# Set-up: unit not given here
# CONDITION_NOTES: Molar ratio (Nucleotide/UCP) 1.98488; representative isotherm, pH 6.0, 20 °C
MEASURED_ATTRIBUTE: isotherm data point (enthalpy change per injection)

| MOLECULE | REPORTED_VALUE |
| --- | --- |
| O=c1ccn([C@@H]2O[C@H](CO[P@@](=O)(O)O[P@@](=O)(O)OP(=O)(O)O)[C@@H](O)[C@H]2O)c(=O)[nH]1 (stereo in doubt) [UTP, uridine triphosphate] | 0.02152 |
| Nc1nc2c(ncn2[C@@H]2O[C@H](COP(=O)(O)OP(=O)(O)OP(=O)(O)O)[C@@H](O)[C@H]2O)c(=O)[nH]1 [GTP, guanosine triphosphate] | 0.2135 |
| Nc1ccn(C2OC(COP(=O)(O)OP(=O)(O)OP(=O)(O)O)C(O)C2O)c(=O)n1 (centres unmarked) | -0.1288 |
| Cc1cn([C@H]2C[C@H](O)[C@@H](COP(=O)(O)OP(=O)(O)OP(=O)(O)O)O2)c(=O)[nH]c1=O [dTTP, thymidine triphosphate] | 0.2054 |
| Nc1ncnc2c1ncn2[C@@H]1O[C@H](COP(=O)(O)OP(=O)(O)OP(=O)(O)O)[C@@H](O)[C@H]1O [ATP, adenosine triphosphate] | 0.1711 |

====

# ASSAYED_SYSTEM: UCP1 (Homo sapiens)
# Construct: His8 (N, cleaved yes); Factor Xa protease cleavage site (N, cleaved yes); made in house; host or cells: Saccharomyces cerevisiae strain W303.1B
# Sequence (P25874 1-307): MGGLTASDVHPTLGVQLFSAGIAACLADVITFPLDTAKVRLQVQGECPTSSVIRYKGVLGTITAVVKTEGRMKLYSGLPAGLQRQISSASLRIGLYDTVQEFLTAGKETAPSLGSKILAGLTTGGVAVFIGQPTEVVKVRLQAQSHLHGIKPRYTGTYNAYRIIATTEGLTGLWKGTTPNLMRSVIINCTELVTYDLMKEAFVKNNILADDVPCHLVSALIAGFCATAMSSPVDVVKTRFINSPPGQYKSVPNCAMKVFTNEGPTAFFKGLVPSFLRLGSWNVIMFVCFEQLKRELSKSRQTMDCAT
# PROCEDURE_SUMMARY: Isothermal titration calorimetry of nucleotide binding;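 also: purified human UCP1 in cacodylate buffer with lauryl maltose neopentyl glycol and cardiolipin, titrated with nucleotides, isotherms fitted by one-site model yielding ΔH, Kd and stoichiometry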
# Design: unit not given here
# CONDITION_NOTES: Molar ratio (Nucleotide/UCP) 1.14336; representative isotherm, pH 6.0, 20 °C
MEASURED_ATTRIBUTE: isotherm data point (enthalpy change per injection)

| COMPOUND | REPORTED_VALUE |
| --- | --- |
| O=c1ccn([C@@H]2O[C@H](CO[P@@](=O)(O)O[P@@](=O)(O)OP(=O)(O)O)[C@@H](O)[C@H]2O)c(=O)[nH]1 (stereo in doubt) [UTP, uridine triphosphate] | -3.759 |
| Nc1ncnc2c1ncn2[C@@H]1O[C@H](COP(=O)(O)OP(=O)(O)OP(=O)(O)O)[C@@H](O)[C@H]1O [ATP, adenosine triphosphate] | -4.354 |
| Nc1nc2c(ncn2[C@@H]2O[C@H](COP(=O)(O)OP(=O)(O)OP(=O)(O)O)[C@@H](O)[C@H]2O)c(=O)[nH]1 [GTP, guanosine triphosphate] | -5.2039 |
| Nc1ccn(C2OC(COP(=O)(O)OP(=O)(O)OP(=O)(O)O)C(O)C2O)c(=O)n1 (centres unmarked) | -5.024 |
| Cc1cn([C@H]2C[C@H](O)[C@@H](COP(=O)(O)OP(=O)(O)OP(=O)(O)O)O2)c(=O)[nH]c1=O [dTTP, thymidine triphosphate] | -4.409 |
